Readings of inhibition at 20 min, 10 µM for the listed compounds
# Assayed system: CYP2C19 (Homo sapiens)
# Construct: A system of 100 μL human liver microsomes; from tissue; host or cells: human liver microsomes
# Sequence (P33261 whole entry): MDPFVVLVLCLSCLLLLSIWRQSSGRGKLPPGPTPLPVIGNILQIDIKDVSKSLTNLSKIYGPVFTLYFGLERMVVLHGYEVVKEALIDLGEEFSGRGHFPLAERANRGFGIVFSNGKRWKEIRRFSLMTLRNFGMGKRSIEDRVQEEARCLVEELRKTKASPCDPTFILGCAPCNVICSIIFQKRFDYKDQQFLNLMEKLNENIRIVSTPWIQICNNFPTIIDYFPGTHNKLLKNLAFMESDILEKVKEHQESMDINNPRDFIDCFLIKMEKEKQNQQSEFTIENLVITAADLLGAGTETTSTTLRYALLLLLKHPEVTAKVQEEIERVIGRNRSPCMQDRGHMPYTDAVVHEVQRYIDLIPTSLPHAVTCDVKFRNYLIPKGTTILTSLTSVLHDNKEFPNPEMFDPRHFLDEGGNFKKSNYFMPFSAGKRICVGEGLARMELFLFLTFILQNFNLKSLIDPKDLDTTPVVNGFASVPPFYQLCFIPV
# Test protocol: Direct inhibition (DI) of CYP2C19 in human liver microsomes
# Format: in vitro ADME
# Condition label: probe Mephenytoin, human liver microsomes 0.2 mg/mL, 10 μM compound, read-out: Direct inhibition (DI) 2C19 (Mephenytoin)

>  <Compound>
Cc1cc(Nc2ncnc3ccc(NC(=O)/C=C/[C@H]4CCCN4C)cc23)ccc1Oc1ccn2ncnc2n1 [Final product of Embodiment 12]

>  <inhibition at 20 min, 10 µM [%]>
13

$$$$
>  <Compound>
C=CC(=O)N1CCC(c2ccc3ncnc(Nc4ccc(Oc5cc6nncn6cn5)c(C)c4)c3c2)CC1 [Final product of Embodiment 4]

>  <inhibition at 20 min, 10 µM [%]>
23

$$$$
>  <Compound>
C=CC(=O)N[C@H]1CCCN(c2ccc3ncnc(Nc4ccc(Oc5cc6nncn6cn5)c(C)c4)c3c2)C1 [Final product of Embodiment 5]

>  <inhibition at 20 min, 10 µM [%]>
18

$$$$
>  <Compound>
CCOc1cc2ncnc(Nc3ccc(Oc4ccn5ncnc5c4)c(C)c3)c2cc1NC(=O)/C(F)=C\[C@@H]1CCCN1C

>  <inhibition at 20 min, 10 µM [%]>
43

$$$$
